Kindly supply the reported EC50 values for the records listed here.
# testSystem: human androgen receptor (Homo sapiens)
# Construct: expressed in transfected cells; host or cells: HEK293
# Sequence (P10275 whole entry): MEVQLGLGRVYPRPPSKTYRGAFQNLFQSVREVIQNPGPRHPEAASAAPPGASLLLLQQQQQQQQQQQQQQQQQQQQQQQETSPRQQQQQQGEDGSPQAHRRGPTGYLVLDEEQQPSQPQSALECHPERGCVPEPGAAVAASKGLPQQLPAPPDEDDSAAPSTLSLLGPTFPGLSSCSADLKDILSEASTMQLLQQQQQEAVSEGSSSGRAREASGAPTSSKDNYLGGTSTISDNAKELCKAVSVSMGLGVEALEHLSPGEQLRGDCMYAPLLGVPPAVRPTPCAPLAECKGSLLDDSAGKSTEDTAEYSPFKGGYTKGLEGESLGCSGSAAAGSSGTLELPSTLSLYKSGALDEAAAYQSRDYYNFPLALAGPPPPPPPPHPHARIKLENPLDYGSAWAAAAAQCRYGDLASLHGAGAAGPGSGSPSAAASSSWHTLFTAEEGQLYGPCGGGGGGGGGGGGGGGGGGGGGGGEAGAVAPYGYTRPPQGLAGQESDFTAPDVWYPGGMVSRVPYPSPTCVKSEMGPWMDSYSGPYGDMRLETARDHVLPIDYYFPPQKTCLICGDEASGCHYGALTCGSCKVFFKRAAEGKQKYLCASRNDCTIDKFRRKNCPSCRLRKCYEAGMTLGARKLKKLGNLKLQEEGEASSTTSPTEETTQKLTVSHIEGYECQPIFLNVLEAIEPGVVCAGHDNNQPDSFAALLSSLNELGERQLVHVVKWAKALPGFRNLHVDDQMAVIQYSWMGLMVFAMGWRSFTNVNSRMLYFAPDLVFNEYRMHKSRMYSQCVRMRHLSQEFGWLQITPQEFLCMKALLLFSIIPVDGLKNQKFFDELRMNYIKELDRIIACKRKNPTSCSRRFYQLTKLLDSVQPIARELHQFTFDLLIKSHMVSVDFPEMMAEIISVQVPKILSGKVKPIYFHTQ
# procedureText: Reporter assay of an androgen receptor responsive sequence (luciferase, transiently transfected HEK293 cells)
# Assay type: cell-based
# reportedConditions: 24 hours incubation, relative to activity of 100 nM DHT, read-out: AR transcriptive activity (pEC50) (converted)

query: Field request: EC50 | item: Cc1sc(N(CCc2cccc(C(F)(F)F)c2)Cc2ccccc2)nc1C(=O)NS(C)(=O)=O [Compound 330]
result: > 10 µM

query: Look up EC50: CS(=O)(=O)NC(=O)c1nc(N(Cc2ccccc2)c2ccc(C#N)cc2)sc1C(F)F [Example 284]
result: > 10 µM

query: Recorded EC50 for Cc1sc(N(CCCCOc2ccccc2)c2ccc(C#N)cc2)nc1C(=O)NS(C)(=O)=O [Compound 369] , please?
result: > 10 µM

query: What measured EC50 goes with Cc1sc(N(Cc2nc(C3CC3)no2)c2ccc(C#N)cc2)nc1C(=O)NS(C)(=O)=O [Example 196] ?
result: 1.58 µM

query: Dear colleague, I am looking for the recorded EC50 of the following compound: CCS(=O)(=O)NC(=O)c1nc(N(CCC2CCCCC2)Cc2ccc(OC(F)(F)F)cc2)sc1C [Compound 733]
result: > 10 µM

query: Could you share which EC50 value was measured for Cc1oc(N(CCC2CCCC2)c2ccc(C#N)cc2)nc1C(=O)NS(C)(=O)=O [Compound 622] ?
result: > 10 µM
